- Species: Rattus norvegicus
- experiment summary: DrugMatrix - Regimen: Daily Repeat
- Format: toxicity, organism-based, Sprague-Dawley
- Design: regimen Daily Repeat, gender Male, age 6-8 weeks
- experimental conditions: in vivo, po, 1500 mg/kg, 120 h, tissue Blood, route oral GAVAGE, dose level High, time 5 day, vehicle .5 % CMC
This listing pairs compounds with measured MEAN CORPUSCULAR HEMOGLOBIN CONCENTRATION.
Please append the unit to your numeric answer.

Below are worked cases with known answers.
Cc1cc(=O)n(-c2ccccc2)n1C [ANTIPYRINE]: 40.27 G/DL
CNC(=C[N+](=O)[O-])NCCSCc1ccc(CN(C)C)o1: 39.33 G/DL
Cc1ccc(S(=O)(=O)NC(=O)NN2CC3CCCC3C2)cc1 (configuration not stated) [GLICLAZIDE]: 39.8 G/DL
C[C@]1(Cn2ccnn2)[C@H](C(=O)O)N2C(=O)C[C@H]2S1(=O)=O: 38.5 G/DL
O=C(N[C@H](CO)[C@H](O)c1ccc([N+](=O)[O-])cc1)C(Cl)Cl: 40.5 G/DL
CO[C@H]1/C=C/O[C@@]2(C)Oc3c(C)c(O)c4c(c3C2=O)C2=NC3(CCN(CC(C)C)CC3)NC2=C(NC(=O)/C(C)=C\C=C\[C@H](C)[C@H](O)[C@@H](C)[C@@H](O)[C@@H](C)[C@H](OC(C)=O)[C@@H]1C)C4=O: 39.9 G/DL

Problem: I would be grateful if you could share the reported MEAN CORPUSCULAR HEMOGLOBIN CONCENTRATION for NC(=O)c1cnccn1 [PYRAZINAMIDE] .
Solution: 37.03 G/DL

====

- Species on record: Rattus norvegicus
- experiment summary: DrugMatrix - Regimen: Daily Repeat
- Type: toxicity, organism-based, Sprague-Dawley
- Design: regimen Daily Repeat, gender Male, age 6-8 weeks
- experimental conditions: in vivo, po, 900 mg/kg, 72 h, tissue Blood, route oral GAVAGE, dose level High, time 3 day, […]
readout label: ABSOLUTE EOSINOPHIL (cells/µL)
Your answer is read as cells/µL, so omit the unit and give the number.

Problem: I would be grateful if you could share the reported ABSOLUTE EOSINOPHIL for `Clc1ccc(Cl)cc1` .
Solution: 40

====

- Species on record: Rattus norvegicus
- experiment summary: DrugMatrix - Regimen: Daily Repeat
- Type: toxicity, organism-based, Sprague-Dawley
- Parameters: regimen Daily Repeat, gender Male, age 6-8 weeks
- experimental conditions: in vivo, po, 0 mg/kg, 72 h, tissue Plasma, route oral GAVAGE, dose level Control, time 3 day, […]
I would appreciate it if you labelled entries Fulfilled when ASPARTATE AMINOTRANSFERASE is 90 u/L or higher, otherwise Not fulfilled.

CC(=O)Nc1cccc(O)c1 [METACETAMOL]: Fulfilled
CC(C)Cc1ccc(C(C)C(=O)O)cc1 (stereo unspecified) [IBUPROFEN]: Fulfilled
Cc1cccc(Nc2ccncc2S(=O)(=O)NC(=O)NC(C)C)c1 [TORSEMIDE]: Fulfilled
C[C@]12CC[C@@H]3c4ccc(O)cc4CC[C@H]3[C@@H]1CC[C@@H]2O [ESTRADIOL]: Fulfilled
COc1ccc2[nH]c([S+]([O-])Cc3ncc(C)c(OC)c3C)nc2c1 (stereo unspecified) [OMEPRAZOLE]: Not fulfilled
CC(C)(Oc1ccc(C2CCCc3ccccc32)cc1)C(=O)O (stereo unspecified) [NAFENOPIN]: Fulfilled
Clc1ccc(Cl)cc1 [1,4-DICHLOROBENZENE]: Not fulfilled
O=C(O)Cc1ccccc1Nc1c(Cl)cccc1Cl [DICLOFENAC]: Not fulfilled

Problem: Would you say CCOC(=O)C(C)(C)Oc1ccc(Cl)cc1 [CLOFIBRATE] shows ASPARTATE AMINOTRANSFERASE at minimum 90 u/L?
Solution: Not fulfilled

Problem: Would you say CC/C(=C(/CC)c1ccc(O)cc1)c1ccc(O)cc1 [DIETHYLSTILBESTROL] shows ASPARTATE AMINOTRANSFERASE at minimum 90 u/L?
Solution: Not fulfilled
